Molecular target: T1, 285bZIP E295G/E299G (human, UniProt P16220-1 285-339, C300S;C310S;C337S;E295G;E299G)
T1 sequence: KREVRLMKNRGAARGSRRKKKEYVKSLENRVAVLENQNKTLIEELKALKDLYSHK
Assay: stopped-flow fluorescence (koff/kon); 10 mM Mg2+; 10 mM MES pH 6.5, 150 mM NaCl, 10 mM MgCl2, 0.05% Tween-20, 25 C; NMR: 10 mM Tris-d11, 150 mM NaCl, 10 mM MgCl2, 1 mM NaN3, 5% D2O (NOE at 25 C)
Details: protein: recombinant; tags: extra N-terminal Gly; chain copies: 2; label: 5' Alexa Fluor 488; hairpin (self-annealing, 11 bp stem, CCCC loop)
measured endpoint: pKd
Please report pKd as the negative decimal logarithm of the molar concentration, giving only the number.

pKd for CCTGACGTCAGCCCCCTGACGTCAGG (structured_DNA) [AlexaFluor488-CREh] is 6.77
